B1: HDAC6 (parent)
chain: KMKTRELHRESSNFDSIYICPSTF

variants of: B1; assay: protein stability index of a GFP-peptide fusion (GPS, HEK-293T) (PSI 1-6); higher = more stable; details: c terminus: a fixed tail appended;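 further: lentivirally expressed fusions sorted by FACS into six bins by GFP to DsRed ratio, PSI derived from sequencing read proportions per bin multiplied by bin number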
Use Fulfilled when the recorded protein stability index is no lower than 2; use Not fulfilled when it is lower.

Field: example entries. Status: answers known.
residue change	class name
P21D	Fulfilled
S22A	Fulfilled
F24P	Fulfilled
S16I	Not fulfilled
K1D	Fulfilled

Asked: Hi team, for `S12P` , is the recorded protein stability index at or above 2?
Given back: Fulfilled

Asked: Hi team, for `I17G` , is the recorded protein stability index at or above 2?
Given back: Fulfilled

Asked: Hi team, for `R9K` , is the recorded protein stability index at or above 2?
Given back: Fulfilled

Asked: Hi team, for `C20M` , is the recorded protein stability index at or above 2?
Given back: Fulfilled

Asked: Hi team, for `E6L` , is the recorded protein stability index at or above 2?
Given back: Not fulfilled

Asked: Hi team, for `E6Y` , is the recorded protein stability index at or above 2?
Given back: Not fulfilled

Asked: Hi team, for `I17H` , is the recorded protein stability index at or above 2?
Given back: Fulfilled

Asked: Hi team, for `N13T` , is the recorded protein stability index at or above 2?
Given back: Fulfilled
